- System: MCF7
- assay summary: Cytotoxicity against human MCF7 cells after 48 hrs by MTT assay
- Format: functional, cell-based
- reported conditions: MCF7, 48 h
quantity: pIC50
One number for each entry, as −log10 of the molar value.

Query: Identify the measured pIC50 of C[C@H]1CC[C@@H]2[C@H](C=C[C@H]3[C@H](C)/C=C/C[C@]4(C)C=C(CO)[C@H](C[C@@H](C)O)C[C@]45OC(=O)C(=C5O)C(=O)[C@@]23C)C1 for MCF7.
Result: 4.47
